subjectOfTest: hCA IX (Homo sapiens)
procedureText: stopped-flow CO2 hydration assay, hCA IX
Format: biochemical
details: ratio of KI hCA II to KI hCA IX
quantityMeasured: SI II/IX

Observe how each entry below is paired with its result.
| compound | SI II/IX |
| --- | --- |
| COCCOc1cc2ncnc(Nc3cccc(-c4cn(CCOCCOCCOCCNC(=S)NCCc5ccc(S(N)(=O)=O)cc5)nn4)c3)c2cc1OCCOC | 3.73 |
| COCCOc1cc2ncnc(Nc3cccc(-c4cn(CCOCCOCCOCCNC(=S)NCc5ccc(S(N)(=O)=O)cc5)nn4)c3)c2cc1OCCOC | 44.57 |
| COCCOc1cc2ncnc(Nc3cccc(-c4cn(CCOCCOCCOCCOCCOCCNC(=O)Nc5cccc(S(N)(=O)=O)c5)nn4)c3)c2cc1OCCOC [compound 12a] | 0.23 |

I = COCCOc1cc2ncnc(Nc3cccc(-c4cn(CCOCCOCCOCCNC(=O)Nc5cccc(S(N)(=O)=O)c5)nn4)c3)c2cc1OCCOC
II = COCCOc1cc2ncnc(Nc3cccc(-c4cn(CCOCCOCCOCCNC(=S)Nc5cccc(S(N)(=O)=O)c5)nn4)c3)c2cc1OCCOC
III = COCCOc1cc2ncnc(Nc3cccc(-c4cn(CCOCCOCCOCCOCCOCCNC(=S)NCc5ccc(S(N)(=O)=O)cc5)nn4)c3)c2cc1OCCOC [compound 14c]
INPUT: Given 3 compounds, produce a descending ranking by SI II/IX. # output: labels, in the requested order
OUTPUT: I, II, III
(I: 2.54, II: 1.65, III: 0.27)
